# reported isobaric coefficient of expansion; entries follow
# experiment.description: isobaric coefficient of expansion
# study.conditions: 338.15 K; 20000 kPa; Liquid; Microcalorimeter

compound	isobaric coefficient of expansion
CCCC[n+]1cccc(C)c1.F[B-](F)(F)F [1-butyl-3-methylpyridinium tetrafluoroborate]	0.000554 1/K
CCn1cc[n+](C)c1.F[B-](F)(F)F [1-ethyl-3-methylimidazolium tetrafluoroborate]	0.00056 1/K
CCn1cc[n+](C)c1.O=S(=O)([N-]S(=O)(=O)C(F)(F)F)C(F)(F)F	0.000614 1/K
CCCCCCCC[n+]1ccn(C)c1.F[B-](F)(F)F [1-methyl-3-octylimidazolium tetrafluoroborate]	0.000567 1/K
CCCCCCn1cc[n+](C)c1.F[B-](F)(F)F [1-hexyl-3-methylimidazolium tetrafluoroborate]	0.000567 1/K
CCCCCC[n+]1ccn(C)c1.O=S(=O)([N-]S(=O)(=O)C(F)(F)F)C(F)(F)F	0.000616 1/K
